The reported numbers originate from paper PMC8667885.

System: HeLa (cervix)
Procedure Summary: antiproliferative assay (NCI protocol), HeLa
Type: cell-based, human
Stated Conditions: Homo sapiens, HeLa; antiproliferative activity
Parameter: GI50 (µM)
Write the value in µM as a bare number.

What GI50 appears in the records for this compound with HeLa (cervix)? Cc1c(C)c2ccc(OCCCCCCNc3nc4ccccc4o3)cc2oc1=O [Compound 8d] 29

Hello, I am looking for reported GI50 with HeLa (cervix) for O=c1[nH]cc(F)c(=O)[nH]1 [5-Fluorouracil, reference compound] . Could you help? 16

Missing value: GI50, HeLa (cervix), entry Cc1cc(=O)oc2cc(OCCCCCNc3nc4cc(S(N)(=O)=O)ccc4o3)ccc12 [Compound 8j] . Fill in? 21

Can you look up GI50 on HeLa (cervix) for Cc1cc(=O)oc2cc(OCCCCCCNc3nc4ccccc4o3)ccc12 [Compound 8c] ? 96

For the record Cc1cc(=O)oc2cc(OCCCNc3nc4ccccc4o3)ccc12 [Compound 8a] , what value of GI50 is listed for HeLa (cervix)? 30
